Test system: LPHV
Test: microbe, parasite or virus in culture
Assay type: cell-based
Conditions: Leopards Hill virus
recordedEndpoint: EC50

molecule	testValue
O=c1ccn([C@@H]2O[C@H](CO)[C@@H](O)[C@H]2O)c(=S)[nH]1 [s2U, 2-thiouridine]	> 100 µM

* * *

System: SFTSV
Test: microbe, parasite or virus in culture
Type: cell-based
Conditions: Severe fever with thrombocytopenia syndrome virus, MDCK
pEC50: −log10 of the molar value.
recordedEndpoint: pEC50

structure	measuredTarget	testValue
O=c1ccn([C@@H]2O[C@H](CO)[C@@H](O)[C@H]2O)c(=S)[nH]1	SFTSV	< 4.00

* * *

Test system: IAV H7N9
Experiment: microbe, parasite or virus in culture
Assay type: cell-based
Settings: Influenza A virus, H7N9, MA104

structure	EC50
O=c1ccn([C@@H]2O[C@H](CO)[C@@H](O)[C@H]2O)c(=S)[nH]1	> 100 µM

* * *

Test system: ZIKV
Assay: microbe, parasite or virus in culture
Assay type: cell-based
Conditions: Zika virus, BHK-21, 72 h
recordedEndpoint: EC50 (µM)

compound	measuredTarget	resultUnit	testValue
O=c1ccn([C@@H]2O[C@H](CO)[C@@H](O)[C@H]2O)c(=S)[nH]1 [s2U, 2-thiouridine]	ZIKV	µM	3.8
